Tested on: Bacteroides stercoris
Assay: Antibacterial activity against Bacteroides stercoris isolate by agar dilution method
Assay type: functional
readout.kind: MIC50
Write your answer as a measured quantity: the number, then the unit.

Some solved entries appear below for comparison.
{"columns": ["molecule", "MIC50"],
 "data": [
  ["CCC[C@@H]1C[C@@H](C(=O)N[C@@H]([C@H]2O[C@H](SC)[C@H](O)[C@@H](O)[C@H]2O)[C@H](C)Cl)N(C)C1", "4 µg/mL"],
  ["C[C@@H](O)[C@H]1C(=O)N2C(C(=O)O)=C(SCCNC=N)C[C@H]12 [IMIPENEM ANHYDROUS]", "0.25 µg/mL"],
  ["CO[C@@]1(NC(=O)Cc2cccs2)C(=O)N2C(C(=O)O)=C(COC(N)=O)CS[C@@H]21", "16 µg/mL"],
  ["CN(C)c1cc(NC(=O)CNC(C)(C)C)c(O)c2c1C[C@H]1C[C@H]3[C@H](N(C)C)C(O)=C(C(N)=O)C(=O)[C@@]3(O)C(O)=C1C2=O", "1 µg/mL"],
  ["COc1c(N2C[C@@H]3CCCN[C@@H]3C2)c(F)cc2c(=O)c(C(=O)O)cn(C3CC3)c12", "2 µg/mL"]
]}

Ask | Given the entry `Cc1ncc([N+](=O)[O-])n1CCO` , what MIC50 was observed with Bacteroides stercoris?
Reply | 0.5 µg/mL

Ask | Hi! What's the reported MIC50 for `O=C(N[C@H](CO)[C@H](O)c1ccc([N+](=O)[O-])cc1)C(Cl)Cl` on Bacteroides stercoris?
Reply | 4 µg/mL

----------
Test system: Bacteroides stercoris
Assay: Antibacterial activity against Bacteroides stercoris assessed as percent resistant isolates by agar dilution method
Assay type: functional
Conditions: pooled result: one value given for 4 cell lines, strains, targets or settings
readout.kind: Activity
Output should be the measured figure followed by the unit it is expressed in.

Below, 5 compounds whose answers are already recorded.
{"columns": ["compound", "readout.kind", "result"],
 "data": [
  ["Cc1ncc([N+](=O)[O-])n1CCO", "Activity", "0%"],
  ["COc1c(N2C[C@@H]3CCCN[C@@H]3C2)c(F)cc2c(=O)c(C(=O)O)cn(C3CC3)c12", "Activity", "28.3%"],
  ["CCC[C@@H]1C[C@@H](C(=O)N[C@@H]([C@H]2O[C@H](SC)[C@H](O)[C@@H](O)[C@H]2O)[C@H](C)Cl)N(C)C1", "Activity", "45.7%"],
  ["CO[C@@]1(NC(=O)Cc2cccs2)C(=O)N2C(C(=O)O)=C(COC(N)=O)CS[C@@H]21", "Activity", "23.9%"],
  ["O=C(N[C@H](CO)[C@H](O)c1ccc([N+](=O)[O-])cc1)C(Cl)Cl", "Activity", "0%"]
]}

Ask | Quick check: Activity of `CN(C)c1cc(NC(=O)CNC(C)(C)C)c(O)c2c1C[C@H]1C[C@H]3[C@H](N(C)C)C(O)=C(C(N)=O)C(=O)[C@@]3(O)C(O)=C1C2=O` ?
Reply | 10.5%

Ask | Fill in: Activity of C[C@@H](O)[C@H]1C(=O)N2C(C(=O)O)=C(SCCNC=N)C[C@H]12 [IMIPENEM ANHYDROUS] is ___
Reply | 0%

----------
The compounds listed here are annotated with their MIC90.
Tested on: Bacteroides caccae
Assay: Antibacterial activity against Bacteroides caccae isolate by agar dilution method
Type: functional

Some compounds with known MIC90 results, for comparison:
{"columns": ["compound", "readout.kind", "result"],
 "data": [
  ["COc1c(N2C[C@@H]3CCCN[C@@H]3C2)c(F)cc2c(=O)c(C(=O)O)cn(C3CC3)c12", "MIC90", "32 µg/mL"],
  ["C[C@@H](O)[C@H]1C(=O)N2C(C(=O)O)=C(SCCNC=N)C[C@H]12 [IMIPENEM ANHYDROUS]", "MIC90", "2 µg/mL"],
  ["CN(C)c1cc(NC(=O)CNC(C)(C)C)c(O)c2c1C[C@H]1C[C@H]3[C@H](N(C)C)C(O)=C(C(N)=O)C(=O)[C@@]3(O)C(O)=C1C2=O", "MIC90", "16 µg/mL"],
  ["Cc1ncc([N+](=O)[O-])n1CCO", "MIC90", "2 µg/mL"],
  ["CO[C@@]1(NC(=O)Cc2cccs2)C(=O)N2C(C(=O)O)=C(COC(N)=O)CS[C@@H]21", "MIC90", "32 µg/mL"]
]}

Ask | Item under review: `O=C(N[C@H](CO)[C@H](O)c1ccc([N+](=O)[O-])cc1)C(Cl)Cl` . Reported MIC90?
Reply | 8 µg/mL

Ask | Dear colleague, I am looking for the recorded MIC90 of the following compound: `CCC[C@@H]1C[C@@H](C(=O)N[C@@H]([C@H]2O[C@H](SC)[C@H](O)[C@@H](O)[C@H]2O)[C@H](C)Cl)N(C)C1`
Reply | > 256 µg/mL
